Target: β-adrenergic receptor (β1), guinea-pig right atrium (Cavia porcellus)
Construct: Spontaneously beating right atria are dissected from guinea-pigs; from tissue; host or cells: guinea-pig right atrium (strip with sinoatrial node)
Sequence (H0W3H1 1-470): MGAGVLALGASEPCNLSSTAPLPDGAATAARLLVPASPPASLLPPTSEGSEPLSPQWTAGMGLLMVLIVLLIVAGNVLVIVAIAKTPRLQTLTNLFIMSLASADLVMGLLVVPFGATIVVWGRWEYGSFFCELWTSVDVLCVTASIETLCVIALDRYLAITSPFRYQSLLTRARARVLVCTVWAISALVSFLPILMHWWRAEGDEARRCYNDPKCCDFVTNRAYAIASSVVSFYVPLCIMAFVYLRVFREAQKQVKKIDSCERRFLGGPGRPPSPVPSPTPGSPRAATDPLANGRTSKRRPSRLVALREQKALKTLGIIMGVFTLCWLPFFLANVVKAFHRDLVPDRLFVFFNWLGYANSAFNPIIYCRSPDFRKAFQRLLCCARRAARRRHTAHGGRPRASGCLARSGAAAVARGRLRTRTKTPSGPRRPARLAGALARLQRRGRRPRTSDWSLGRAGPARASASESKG
Test: Guinea-pig right atrium (β1): inhibition of isoprenaline-induced increase in heart rate
Assay type: cell-based
Conditions: Table I, isolated guinea-pig right atrium, drug incubation 30 min, 37.5° C., ED50 estimated graphically
Measured pIC50 accompanies every entry in the list below.
Scale note: pIC50 = -log10(concentration in M).

CC(C)Oc1ccccc1OCC(O)CN1CCCC(Cn2c(=O)[nH]c3ccccc32)C1 (centres unmarked) ... 7.94

Value lookup for pIC50; key = O=c1[nH]c2ccccc2n1CC1CCCN(CC(O)COc2ccc(Br)cc2)C1 (centres unmarked)
7.96

Requested read-out: pIC50. Entry: Cc1cccc(OCC(O)CN2CCCC(Cn3c(=O)[nH]c4ccccc43)C2)c1C (centres unmarked)
8.21

# get_value(readout='pIC50', item= O=c1[nH]c2cc(Cl)ccc2n1CC1CCCN(CC(O)COc2ccc(F)cc2)C1 (centres unmarked) )
7.94

Item under review: CCc1ccccc1OCC(O)CN1CCCC(Cn2c(=O)[nH]c3ccccc32)C1 (centres unmarked) . Reported pIC50?
8.21

Returns the measured pIC50 for the input compound. Input: CCOc1ccccc1OCC(O)CN1CCCC(Cn2c(=O)[nH]c3ccccc32)C1 (centres unmarked)
8.23

Fill blank: measured pIC50 of the compound O=c1[nH]c2ccc(Cl)cc2n1CC1CCCN(CC(O)COc2ccc(F)cc2)C1 (centres unmarked) is ____.
7.94

Param item = Cc1cccc(OCC(O)CN2CCCC(Cn3c(=O)[nH]c4ccccc43)C2)c1 (centres unmarked) ; retrieve measured pIC50.
8.20
